Recorded values, source paper PMC7555427.

Test system: Human renal epithelial cell (293T)
Method Notes: Cytotoxicity assay, Cell Counting Kit-8 (CCK8), 72 h
Assay type: cell-based
Condition Summary: HEK-293T, 293T cells, CCK-8, 72 h
Reported Property: IC50 (µM)

• c1ccc(Cn2cc(-c3cccc(Nc4ncnc5cc6c(cc45)OCCOCCOCCO6)c3)nn2)cc1 = 3.08
• Cc1ccc(Cn2cc(-c3cccc(Nc4ncnc5cc6c(cc45)OCCOCCOCCO6)c3)nn2)cc1 = 0.16
• Clc1cccc(-n2cc(-c3cccc(Nc4ncnc5cc6c(cc45)OCCOCCOCCO6)c3)nn2)c1 = 3.1
• Cc1ccccc1Cn1cc(-c2cccc(Nc3ncnc4cc5c(cc34)OCCOCCOCCO5)c2)nn1 = 3.35
• Fc1ccc(CCn2cc(-c3cccc(Nc4ncnc5cc6c(cc45)OCCOCCOCCO6)c3)nn2)cc1 = 2.6
• COc1cccc(Cn2cc(-c3cccc(Nc4ncnc5cc6c(cc45)OCCOCCOCCO6)c3)nn2)c1 = 3.3
• c1ccc(-n2cc(-c3cccc(Nc4ncnc5cc6c(cc45)OCCOCCOCCO6)c3)nn2)cc1 = 42.8
• Brc1cccc(Cn2cc(-c3cccc(Nc4ncnc5cc6c(cc45)OCCOCCOCCO6)c3)nn2)c1 = 3.1
• Brc1cc(Br)cc(Cn2cc(-c3cccc(Nc4ncnc5cc6c(cc45)OCCOCCOCCO6)c3)nn2)c1 = 0.74

###

Target Or Test System: IDO1 (Homo sapiens, UniProt P14902)
Construct: host or cells: HeLa cells, IDO1 induced with 100 ng/ml human IFN-γ
Sequence (P14902 whole entry): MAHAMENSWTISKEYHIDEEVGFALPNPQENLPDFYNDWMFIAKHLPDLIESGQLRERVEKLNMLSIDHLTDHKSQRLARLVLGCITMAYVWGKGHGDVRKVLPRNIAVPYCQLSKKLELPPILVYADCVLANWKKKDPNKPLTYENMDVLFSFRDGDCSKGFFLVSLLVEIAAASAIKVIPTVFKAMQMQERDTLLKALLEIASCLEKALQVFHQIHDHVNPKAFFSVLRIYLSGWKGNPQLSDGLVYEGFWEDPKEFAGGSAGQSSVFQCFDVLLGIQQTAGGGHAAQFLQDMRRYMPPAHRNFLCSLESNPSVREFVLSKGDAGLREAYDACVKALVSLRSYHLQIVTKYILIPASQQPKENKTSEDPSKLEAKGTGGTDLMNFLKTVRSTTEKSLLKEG
Method Notes: Hela cell-based IDO1 functional assay (kynurenine readout, IFN-γ induced)
Condition Summary: Hela cells, 100 ng/ml human IFN-γ, 18 h; Table 1 and text
Reported Property: IC50 (µM)

* C#Cc1cccc(Nc2ncnc3cc4c(cc23)OCCOCCOCCO4)c1 | 2.57
* Clc1cccc(-n2cc(-c3cccc(Nc4ncnc5cc6c(cc45)OCCOCCOCCO6)c3)nn2)c1 | 2.82
* Ic1ccccc1-n1cc(-c2cccc(Nc3ncnc4cc5c(cc34)OCCOCCOCCO5)c2)nn1 | 2.5
* Fc1ccc(-n2cc(-c3cccc(Nc4ncnc5cc6c(cc45)OCCOCCOCCO6)c3)nn2)cc1 | 18.2
* Brc1cccc(Cn2cc(-c3cccc(Nc4ncnc5cc6c(cc45)OCCOCCOCCO6)c3)nn2)c1 | 0.37
* COc1ccccc1-n1cc(-c2cccc(Nc3ncnc4cc5c(cc34)OCCOCCOCCO5)c2)nn1 | 1.32
* Cc1ccc(Cn2cc(-c3cccc(Nc4ncnc5cc6c(cc45)OCCOCCOCCO6)c3)nn2)cc1 | 0.59
* COc1cccc(-n2cc(-c3cccc(Nc4ncnc5cc6c(cc45)OCCOCCOCCO6)c3)nn2)c1 | 1.41
* Brc1cc(Br)cc(Cn2cc(-c3cccc(Nc4ncnc5cc6c(cc45)OCCOCCOCCO6)c3)nn2)c1 | 0.68
* COc1cccc(Cn2cc(-c3cccc(Nc4ncnc5cc6c(cc45)OCCOCCOCCO6)c3)nn2)c1 | 0.76
* Clc1ccc(-n2cc(-c3cccc(Nc4ncnc5cc6c(cc45)OCCOCCOCCO6)c3)nn2)cc1 | 2.9
* c1ccc(Cn2cc(-c3cccc(Nc4ncnc5cc6c(cc45)OCCOCCOCCO6)c3)nn2)cc1 | 0.56
* Cc1ccccc1Cn1cc(-c2cccc(Nc3ncnc4cc5c(cc34)OCCOCCOCCO5)c2)nn1 | 0.79
* Fc1ccc(CCn2cc(-c3cccc(Nc4ncnc5cc6c(cc45)OCCOCCOCCO6)c3)nn2)cc1 | 0.81
* c1ccc(-n2cc(-c3cccc(Nc4ncnc5cc6c(cc45)OCCOCCOCCO6)c3)nn2)cc1 | 0.77
* Ic1ccccc1Cn1cc(-c2cccc(Nc3ncnc4cc5c(cc34)OCCOCCOCCO5)c2)nn1 | 1.51
* Brc1ccccc1-n1cc(-c2cccc(Nc3ncnc4cc5c(cc34)OCCOCCOCCO5)c2)nn1 | 1
* Brc1ccc(-n2cc(-c3cccc(Nc4ncnc5cc6c(cc45)OCCOCCOCCO6)c3)nn2)cc1 | 2.79
* Brc1ccccc1Cn1cc(-c2cccc(Nc3ncnc4cc5c(cc34)OCCOCCOCCO5)c2)nn1 | 1.5
* Fc1cccc(-n2cc(-c3cccc(Nc4ncnc5cc6c(cc45)OCCOCCOCCO6)c3)nn2)c1 | 4.25
* Clc1ccccc1-n1cc(-c2cccc(Nc3ncnc4cc5c(cc34)OCCOCCOCCO5)c2)nn1 | 4.88
* Fc1ccccc1Cn1cc(-c2cccc(Nc3ncnc4cc5c(cc34)OCCOCCOCCO5)c2)nn1 | 4.62
